The values you see were collected from patent US20240252641A1.

In this section, each of the binders is paired with its reported cell binding.
Target: T1, CD70 on cells (CHO-CD70, JVM-3, U266, Raji, THP-1, T cells) (human, UniProt P32970 1-193)
T1 construct: whole, on cells; also called cell-surface CD70
T1 sequence (looked up): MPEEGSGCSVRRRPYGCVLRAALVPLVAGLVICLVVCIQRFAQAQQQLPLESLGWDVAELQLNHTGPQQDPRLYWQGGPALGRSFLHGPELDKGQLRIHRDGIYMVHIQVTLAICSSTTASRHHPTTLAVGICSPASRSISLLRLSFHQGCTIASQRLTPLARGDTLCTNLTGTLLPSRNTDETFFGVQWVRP
Experiment: 1.25 µg/mL scFv on CHO-CD70 cells

Below, each entry is followed by its recorded cell binding result.
Query: Given 56-TC7-VI-H08 (scFv, His-tagged) scFv: QMQLVQSGAEVKKPGASVKVSCKASGYTFTSYYMHWVRQAPGQGLEWMGIINPSGGSTSYAQKFQGRVTMTRDTSTSTAYMELRSLRSDDTAVYYCARGWETNDAFDIWGQGTMVTVSSGGSGGSGGSGGSQSVLTQPPSVSGAPGQKVTISCSGSNSNVGNHYLSWYQHLPGTAPRLLIFDNNKRPSGIPDRFSGSKSGASATLDITGLQTGDEADYFCGTWDSRLNVWVFGGGTKLTVL , state its recorded cell binding.
Response: 296000

Query: Given 15-TC7-I-D07 (scFv, His-tagged) scFv: QVQLQQWGAGLLKPSETLSLTCAVYGGSFSGYYWSWIRQPPGKGLEWIGEINHSGSTNYNPSLKSRVTISVDTSKNQFSLKLSSVTAADTAVYYCARVSRSRGAFDIWGQGTMVTVSSGGSGGSGGSGGSQSALTQPASVSGSPGQSITISCTGTNSDVGAYNYVSWYQQHPGKAPKLMIYEVTNRPSGVSNRFSGSKSGNTASLTISGLQAEDEADYYCSSYTSSGTWVFGGGTKLTVL , state its recorded cell binding.
Response: 271000

Query: Given 37-TC7-VII-D05 (scFv, His-tagged) scFv: QMQLVQSGGGVVQPGRSLRLSCAASGFTFSSYAMHWVRQAPGKGLEWVAVISYDGSNKYYADSVKGRFTISRDNSKNTLYLQMNSLRAEDTAVYYCARDALWDTATFDYWGQGTLVTVSSGGSGGSGGSGGSSSELTQDPAVSVALGQTVRITCQGDSLRSYYASWYQQKPGQAPVLVIYGKNNRPSGIPDRFSGSSSGNTASLTITGAQAEDEADYYCNSRDSSGNPWVFGGGTKLTVL , state its recorded cell binding.
Response: 111000

Query: Given 35-TC6-VII-A09 (scFv, His-tagged) scFv: EVQLVQSGGGVVQPGRSLRLSCAASGFTFSSYGMHWVRQAPGKGLEWVAVISYDGSNKYYADSVKGRFTISRDNSKNTLYLQMNSLRAEDTAVYYCAKAGAPPHYYYGMDVWGQGTTVTVSSGGSGGSGGSGGSQSALTQPASVSGSPGQSITISCTGTSSDVGGYDYVSWYQQHPGKAPKLMIYEVTDRPSGIPNRFSGSKSGNTASLTISGLQAEDEADYYCSSYTYTSTLEVFGGGTKVTVL , state its recorded cell binding.
Response: 1.15e+06

// switching to the query binder
Query: Given 46-TC7-VII-E11 (scFv, His-tagged) scFv: QVQLVQSGGGVVQPGRSLRLSCAASGFTFSSYAMHWVRQAPGKGLEWVAVISYDGSNKYYADSVKGRFTISRDNSKNTLYLQMNSLRAEDTAVYYCARDSSGYYYGSDAFDIWGQGTMVTVSSGGSGGSGGSGGSSYELTQPPSVSVALGQTVRITCQGDSLRSYYASWYQQKPGQAPVLVIYGKNNRPSGIPDRFSGSSSGNTASLTITGAQAEDEADYYCNSRDSSGNPWVFGGGTKVTVL , state its recorded cell binding.
Response: 76200
